# Assay Notes: Rat Hepatocyte Stability (Test E)
# Format: in vitro ADME
# Assay Conditions: rat, hepatocytes, geometric mean if run multiple times
Measured Property: hepatocyte CLint (µL/min/1e6 cells)

Here is how some compounds turned out for hepatocyte CLint.
COc1cc(F)c(Cc2cn[nH]c2)cc1C(=O)N[C@@H]1[C@H]2CC[C@H](C2)[C@@H]1C(=O)Nc1cccc(S(=O)(=O)C(F)(F)F)c1 : 130
COc1cc(C#N)c(O[C@H]2CC[C@@](C)(C(=O)O)CC2)cc1C(=O)N[C@@H]1[C@H]2CC[C@H](C2)[C@@H]1C(=O)NC1(C#N)CC1 : 14
COc1cc(F)c(-c2ccc(CCC(=O)O)nc2)cc1C(=O)N[C@@H]1[C@H]2CC[C@H](C2)[C@@H]1C(=O)Nc1cccc(S(=O)(=O)C(F)(F)F)c1 : 35
COc1cc(F)c(O[C@H]2CC[C@@](C)(C(=O)O)CC2)cc1C(=O)N[C@@H]1[C@H]2CC[C@H](C2)[C@@H]1C(=O)NCC1(C)CCCCC1 : 35
COc1cc(C#N)c(O[C@H]2CC[C@@](C)(C(=O)O)CC2)cc1C(=O)N[C@@H]1[C@H]2CC[C@H](C2)[C@@H]1C(=O)NCC1(C(C)C)CC1 : 37
COc1cc(F)c(-c2ccc(C(=O)O)cc2)cc1C(=O)N[C@@H]1[C@H]2CC[C@H](C2)[C@@H]1C(=O)Nc1ccc(S(F)(F)(F)(F)F)cc1 : 10
COc1cc(F)c(O[C@H]2CC[C@@](C)(C(=O)O)CC2)cc1C(=O)N[C@@H]1[C@H]2CC[C@H](C2)[C@@H]1C(=O)N[C@H](C)C1(C)CC1 (racemic) : 59
COc1cc(F)c(-c2ccc(CC(=O)O)cc2)cc1C(=O)N[C@@H]1CCC[C@@H]1C(=O)Nc1cccc(S(=O)(=O)C(F)(F)F)c1 : 9.6

1. COc1cc(F)c(O[C@H]2CC[C@@](C)(C(=O)O)CC2)cc1C(=O)Nc1cc(C)c(C)cc1C(=O)NCC1(C)CCC1
2. COc1cc(C#N)c(O[C@H]2CC[C@@](C)(C(=O)O)CC2)cc1C(=O)N[C@@H]1[C@H]2CC[C@H](C2)[C@@H]1C(=O)NCC1CCCCCC1
### Prompt # query: argmin of hepatocyte CLint over 1 and 2 Answer format: the label of the selected item.
### Response 1
(1: 17 µL/min/1e6 cells, 2: 41 µL/min/1e6 cells)

P. COc1cc(F)c(OC2CCC(C)(C(=O)O)CC2)cc1C(=O)NC1C2CCC(CC2)C1C(=O)NCC1(C)CCC1 (single isomer, unassigned)
Q. COc1cc(F)c(O[C@H]2CC[C@@](C)(C(=O)O)CC2)cc1C(=O)N[C@@H]1[C@H]2CC[C@H](C2)[C@@H]1C(=O)NC12CC(F)(C1)C2
### Prompt So which one has the bigger hepatocyte CLint here, P or Q ? Answer format: the label of the selected item.
### Response P
(P: 12 µL/min/1e6 cells, Q: 8.2 µL/min/1e6 cells)

1. COc1cc(F)c(-c2ccc3c(c2)OC[C@@H]3CC(=O)O)cc1C(=O)N[C@@H]1[C@H]2CC[C@H](C2)[C@@H]1C(=O)Nc1cccc(S(=O)(=O)C(F)(F)F)c1
2. COc1cc(F)c(O[C@H]2CC[C@@H](C(=O)O)CC2)cc1C(=O)N[C@@H]1[C@H]2CC[C@H](C2)[C@@H]1C(=O)NC12CC(C1)C2
### Prompt # query: argmin of hepatocyte CLint over 1 and 2 Answer format: the label of the selected item.
### Response 1
(1: 12 µL/min/1e6 cells, 2: 39 µL/min/1e6 cells)

a. COc1cc(C#N)c(O[C@H]2CC[C@@](C)(C(=O)O)CC2)cc1C(=O)N[C@@H]1[C@H]2CC[C@H](C2)[C@@H]1C(=O)NCC(F)(F)C(F)(F)F
b. COc1cc(F)c(O[C@H]2CC[C@@H](C(=O)O)CC2)cc1C(=O)N[C@@H]1[C@H]2CC[C@H](C2)[C@@H]1C(=O)Nc1ccccc1
c. COc1cc(F)c(O[C@H]2CC[C@@H](C(=O)O)CC2)cc1C(=O)N[C@@H]1[C@H]2CC[C@H](C2)[C@@H]1C(=O)Nc1ccc(F)c(OC(F)(F)F)c1
d. COc1cc(F)c(O[C@H]2CC[C@@H](C(=O)O)CC2)cc1C(=O)N[C@@H]1[C@@H]2CC[C@@H](C2)[C@@H]1C(=O)Nc1cccc(S(F)(F)(F)(F)F)c1
### Prompt Let's sort these by hepatocyte CLint, smallest first. Go ahead? Provide the ranking by listing each label in its place in the requested order.
### Response d, a, c, b
(d: 7 µL/min/1e6 cells, a: 14 µL/min/1e6 cells, c: 28 µL/min/1e6 cells, b: 190 µL/min/1e6 cells)
